Could you please report measured pest or weed control at 5 µg/cm2, 500 g/ha for the items listed next?
System: adult cat fleas (Ctenocephalides felis)
Test Method Notes: Ctenocephalides felis in-vitro contact test, adult cat flea
Type: in vivo
Reported Conditions: 5 μg/cm^2 (=500 g/ha), after 48 hours, read-out: efficacy (fleas dead or moribund)
Description: Ctenocephalides felis—In-Vitro Contact Tests Adult Cat Flea 9 mg compound is solved in 1 ml acetone and diluted with acetone to the desired concentration. […] After the solvent has evaporated, each test tube is filled with 5-10 adult cat fleas (Ctenocephalides felis), closed with a perforated lid and incubated in a lying position at room temperature and relative humidity. After 48 hours efficacy is determined. […]
Note: unit % is implicit; provide only the numeric part.

## Task Need pest or weed control at 5 µg/cm2, 500 g/ha of CC(NC(=O)c1cc(C(F)(F)F)cc(C(F)(F)F)c1)c1nccnc1-c1ncc(C#N)s1 (racemic) , thanks.
## Result 100

## Task Need pest or weed control at 5 µg/cm2, 500 g/ha of CCN(C)C(=O)c1cnc(-c2nccnc2C(C)N(CC2CC2)C(=O)c2cc(C(F)(F)F)cc(C(F)(F)F)c2)s1 (racemic) , thanks.
## Result 100

## Task Need pest or weed control at 5 µg/cm2, 500 g/ha of CC(NC(=O)c1cc(Br)cc(C#N)c1)c1nccnc1-c1ccc(C(=O)N2CCOCC2)cn1 (racemic) , thanks.
## Result 100
